Listed here: items and their measured WC ELISA (fold over background).
molecular target: T1, human cMet expressed on 3T3 cells (human, UniProt P08581 25-1390); experiment: whole cell phage ELISA, 3T3 human cMet vs 3T3
T1 construct: whole, on cells; cells fixed with glutaraldehyde; also called cell surface-expressed human cMet; 3T3 cells that over-express human cMet
T1 sequence (P08581 25-1390): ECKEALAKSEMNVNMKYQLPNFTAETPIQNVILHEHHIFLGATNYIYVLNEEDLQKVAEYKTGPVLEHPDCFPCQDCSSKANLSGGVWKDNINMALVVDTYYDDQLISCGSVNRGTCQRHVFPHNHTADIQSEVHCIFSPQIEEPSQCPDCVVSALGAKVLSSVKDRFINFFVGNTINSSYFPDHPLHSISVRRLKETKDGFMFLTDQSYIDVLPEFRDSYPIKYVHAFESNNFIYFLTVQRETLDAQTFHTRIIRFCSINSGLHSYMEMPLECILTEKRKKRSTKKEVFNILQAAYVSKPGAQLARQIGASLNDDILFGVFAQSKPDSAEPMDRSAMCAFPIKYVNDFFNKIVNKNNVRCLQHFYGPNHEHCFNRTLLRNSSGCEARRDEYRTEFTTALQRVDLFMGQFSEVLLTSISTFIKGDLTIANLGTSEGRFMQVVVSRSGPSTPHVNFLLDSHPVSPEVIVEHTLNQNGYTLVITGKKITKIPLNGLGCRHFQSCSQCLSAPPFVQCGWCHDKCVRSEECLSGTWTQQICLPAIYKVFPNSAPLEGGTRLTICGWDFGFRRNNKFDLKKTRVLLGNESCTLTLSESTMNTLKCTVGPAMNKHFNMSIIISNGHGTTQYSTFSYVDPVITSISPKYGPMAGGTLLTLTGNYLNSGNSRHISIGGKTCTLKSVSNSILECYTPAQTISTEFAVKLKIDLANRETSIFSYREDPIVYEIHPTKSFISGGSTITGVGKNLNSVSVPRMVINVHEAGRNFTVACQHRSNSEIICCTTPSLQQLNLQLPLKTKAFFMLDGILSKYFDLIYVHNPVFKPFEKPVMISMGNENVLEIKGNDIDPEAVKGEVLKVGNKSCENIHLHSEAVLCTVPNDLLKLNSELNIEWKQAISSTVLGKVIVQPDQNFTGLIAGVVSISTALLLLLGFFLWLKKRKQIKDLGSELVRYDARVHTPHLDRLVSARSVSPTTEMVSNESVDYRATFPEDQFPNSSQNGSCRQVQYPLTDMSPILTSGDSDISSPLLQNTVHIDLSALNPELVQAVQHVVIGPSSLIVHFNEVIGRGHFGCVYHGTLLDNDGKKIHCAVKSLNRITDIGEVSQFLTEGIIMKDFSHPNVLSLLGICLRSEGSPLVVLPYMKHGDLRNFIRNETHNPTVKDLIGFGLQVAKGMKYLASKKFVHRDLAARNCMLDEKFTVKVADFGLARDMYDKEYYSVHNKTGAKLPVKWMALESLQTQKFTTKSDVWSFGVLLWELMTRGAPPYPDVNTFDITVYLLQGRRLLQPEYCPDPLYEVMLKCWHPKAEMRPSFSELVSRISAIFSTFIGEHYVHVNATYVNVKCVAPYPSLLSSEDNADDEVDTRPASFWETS
measured property: WC ELISA (fold over background) (fold)

[[record]]
binder = "AGYTSCVGPPSFECTPYGT [323-A11 peptide-displaying phage (SEQ ID NO: 059)]"
test_value = 1.43

[[record]]
binder = "AGVTNCNLSTMFCFLHGT [465-F08 peptide-displaying phage (SEQ ID NO: 026)]"
test_value = 1.3

[[record]]
binder = "GSEYSCRTSRCIFSAP [452-F01 peptide-displaying phage (SEQ ID NO: 006)]"
test_value = 1.33

[[record]]
binder = "GSELFCFYHHQGYEGCDVLAP [465-B07 peptide-displaying phage (SEQ ID NO: 385)]"
test_value = 1.27

[[record]]
binder = "AGSIQCVGPPSFECTPYGT [335-D11 peptide-displaying phage (SEQ ID NO: 074)]"
test_value = 1.37

[[record]]
binder = "AGVNSCLGPPTFECYQMGT [332-C03 peptide-displaying phage (SEQ ID NO: 076)]"
test_value = 1.2

[[record]]
binder = "GSLYRCLGEASPTPPCAYEAP [445-G12 peptide-displaying phage (SEQ ID NO: 380)]"
test_value = 1.37

[[record]]
binder = "GSGMGCHQVNISTGDCAEDAP [442-E03 peptide-displaying phage (SEQ ID NO: 381)]"
test_value = 1.43

[[record]]
binder = "AGQYLCTQAALGCPEWGT [465-E11 peptide-displaying phage (SEQ ID NO: 029)]"
test_value = 1.23

[[record]]
binder = "AGMTLCAGPPTFECYEVGT [552-F02 peptide-displaying phage (SEQ ID NO: 092)]"
test_value = 1.23

[[record]]
binder = "AGQAVCEWGPFWCQMQGT [470-A02 peptide-displaying phage (SEQ ID NO: 031)]"
test_value = 1.3

